Run Description: Metabolic stability in mouse liver microsomes assessed as compound remaining by LC-MS/MS analysis; note: time not given here
Format: ADME, microsome
Exercise: state measured Stability for each of the compounds provided.
Please make sure the unit comes right after the number.

CC(=O)Nc1cc(Nc2nc(-c3cccc(C(F)(F)F)n3)nn3cccc23)ccn1: 49%
Fc1cnccc1Nc1nc(-c2ccccn2)nn2cccc12: 19%
Cc1cccc(-c2nc(Nc3c(F)cncc3F)c3cccn3n2)n1: 7%

Batch lookup, Stability per entry.
1. COc1cccc(-c2nc(Nc3ccncc3)c3cccn3n2)n1
2. c1ccc(-c2nc(Nc3ccncc3)c3cccn3n2)nc1
3. Cc1cccc(-c2nc(Nc3ccncc3F)c3cccn3n2)n1
4. CC(=O)Nc1cc(Nc2nc(-c3cccc(C(F)(F)F)n3)nc3[nH]cnc23)ccn1
5. Cc1cccc(-c2nc(Nc3ccncc3C(=O)NC(C)C)c3cccn3n2)n1
6. FC(F)(F)c1cccc(-c2nc(Nc3ccncc3)c3cccn3n2)n1
7. CC(=O)Nc1cc(Nc2nc(-c3cccc(C(F)(F)F)n3)nn3cccc23)c(F)cn1

Response:
1. 2%
2. 1%
3. 6%
4. 59%
5. 26%
6. 13%
7. 66%

---

Exercise: state measured Stability for each of the compounds provided.
Run Description: Metabolic stability in mouse liver microsomes assessed as compound remaining by LC-MS/MS analysis; note: time not given here
Format: ADME, microsome
Please make sure the unit comes right after the number.

O=C(CN1CCN(CCO)CC1)Nc1cc(Nc2nc(-c3cccc(C(F)(F)F)n3)nn3cccc23)ccn1: 77%

Batch lookup, Stability per entry.
1. N[C@@H]1CCN(Cc2ccn3nc(-c4ccccn4)nc(Nc4ccncc4F)c23)C[C@H]1O
2. Fc1cnccc1Nc1nc(-c2cccc(C(F)(F)F)n2)nc2[nH]ccc12
3. N[C@H]1CCN(Cc2ccn3nc(-c4ccccn4)nc(Nc4ccncc4F)c23)C[C@@H]1O
4. Cc1cccc(-c2nc(Nc3ccncc3)c3cccn3n2)n1

Response:
1. 100%
2. 28%
3. 82%
4. 1%

---

Run Description: Metabolic stability in mouse liver microsomes assessed as compound remaining by LC-MS/MS analysis; note: time not given here
Format: ADME, microsome
Measurement Label: Stability (%)
One number for each entry, in %.

Some solved entries appear below for comparison.
Cc1cccc(-c2nc(Nc3ccncc3F)c3cc[nH]c3n2)n1: 2
Cc1cccc(-c2nc(Nc3ccncc3F)c3nc[nH]c3n2)n1: 4

Batch lookup, Stability per entry.
1. c1ccc(-c2nn3c(c2-c2ccnc4cc(OCCN5CCOCC5)ccc24)CCC3)nc1
2. CC(=O)Nc1cc(Nc2nc(-c3cccc(C(F)(F)F)n3)nc3[nH]ccc23)ccn1
3. N[C@H]1CC[C@@H](NCc2ccn3nc(-c4ccccn4)nc(Nc4ccncc4F)c23)CC1

Response:
1. 36
2. 27
3. 48

---

Run Description: Metabolic stability in rat liver microsomes assessed as compound remaining by LC-MS/MS analysis; note: time not given here
Format: ADME, microsome
Could you label it True if measured Stability is 50% or higher, and False otherwise?

Query: State whether the measured Stability reaches 50%, counting equality as reaching it, for Cc1cccc(-c2nc(Nc3ccncc3F)c3nc[nH]c3n2)n1
Response: False

Query: Quick one: FC(F)(F)c1cccc(-c2nc(Nc3ccncc3)c3cccn3n2)n1
Response: False

---

Run Description: Metabolic stability in rat liver microsomes assessed as compound remaining by LC-MS/MS analysis; note: time not given here
Type: ADME, microsome
Measurement Label: Stability (%)
One number for each entry, in %.

Some solved entries appear below for comparison.
Cc1cccc(-c2nc(Nc3ccncc3F)c3cc[nH]c3n2)n1: 38
c1ccc(-c2nn3c(c2-c2ccnc4cc(OCCN5CCOCC5)ccc24)CCC3)nc1: 46
Fc1cnccc1Nc1nc(-c2ccccn2)nn2cccc12: 54
COc1cccc(-c2nc(Nc3ccncc3)c3cccn3n2)n1: 36
N[C@H]1CC[C@@H](NCc2ccn3nc(-c4ccccn4)nc(Nc4ccncc4F)c23)CC1: 72
c1ccc(-c2nc(Nc3ccncc3)c3cccn3n2)nc1: 33
CC(=O)Nc1cc(Nc2nc(-c3cccc(C(F)(F)F)n3)nc3[nH]ccc23)ccn1: 80
N[C@H]1CCN(Cc2ccn3nc(-c4ccccn4)nc(Nc4ccncc4F)c23)C[C@@H]1O: 90
CC(=O)Nc1cc(Nc2nc(-c3cccc(C(F)(F)F)n3)nn3cccc23)c(F)cn1: 68
CC(=O)Nc1cc(Nc2nc(-c3cccc(C(F)(F)F)n3)nn3cccc23)ccn1: 35

Batch lookup, Stability per entry.
1. Cc1cccc(-c2nc(Nc3ccncc3C(=O)NC(C)C)c3cccn3n2)n1
2. Cc1cccc(-c2nc(Nc3ccncc3F)c3cccn3n2)n1

Response:
[67, 35]
